Target: MEK5 PB1 domain binding to MEKK2 (MAP3K2) mutant PB1, human
Experiment: mutant MEKK2 PB1-MEK5 interaction blockers – biochemical, bead multiplex flow cytometry, dose response (AID 1895)
Settings: Bead-based multiplex flow cytometry
Activity calls are given as the source filed them. No rule for the calls is given here.
Hi there, use one of these labels in your reply, thanks! active, inactive

Challenge: Recorded call for CCc1ccc(-c2nn(-c3ccccc3)cc2CSC(=N)N)cc1 ?
Response given: active

Challenge: Recorded call for COc1ccc(-c2cc(C#N)nc(N3CCNCC3)n2)cc1 ?
Response given: inactive

Challenge: Recorded call for CCN(Cc1ccccc1)S(=O)(=O)c1ccc(C(=O)N(CCCN(C)C)c2nc3ccc(F)cc3s2)cc1 ?
Response given: active

Challenge: Recorded call for CNc1nc(-c2c[nH]c3ccccc23)cs1 ?
Response given: inactive

Challenge: Recorded call for O=C1Nc2ccc(Br)cc2/C1=N/N=C/C1=C(N2CCOCC2)C(=C\c2ccccc2)/CC1 ?
Response given: inactive

The reported numbers originate from PubChem BioAssay AID1895.
